Assay: protein stability index of a GFP-peptide fusion (GPS, HEK-293T) (PSI 1-6); higher = more stable;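 further: 24-mer peptide tiles fused after GFP, lentivirally expressed, FACS-sorted into six equal bins by GFP/DsRed ratio, decoded by Illumina sequencing, PSI is the read-weighted mean bin number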
Conditions: treatment: MLN4924 1 uM, 8 h; c terminus: a fixed tail appended
Class (by protein stability index) -- bin A: < 3; bin B: ≥ 3 and < 5; bin C: ≥ 5

Example entries begin here.
# Item Sequence, Group Label
data = [
    ("SAVAMYMLYEKQKQQNVAHCMLVS [ZBED1]", "bin A"),
    ("DVHDDVRLLSDATVEKDESHAGKV [FAM50A]", "bin C"),
    ("GRGAFGEVRLVQKKDTGHIYAMKI [STK38L]", "bin A"),
]

[Q] Category of LSEDDKLQGAASHVPEGFDPTGPA [EHMT1] , please.
[A] bin C

[Q] Category of ITPTKKIELDRTIMPDGTIVTTVT [C2CD2L] , please.
[A] bin A

[Q] Category of TFLKAFPLMGETQERERVLTHFSR [PSD2] , please.
[A] bin A

[Q] Category of KRGPSSRSGGPPPKKSAPSAVARS [RBMY1A1] , please.
[A] bin B

[Q] Category of PSSPLRLGSYKAQKTSRSSSIPCS [PPEF2] , please.
[A] bin B

[Q] Category of EQVAQLKQKVMTHVSNGCQLLLGV [JUNB] , please.
[A] bin A

[Q] Category of VKESGERKVTDSISKSLELCNEIS [DLC1] , please.
[A] bin B

Ref: the supplement of paper PMC10567573
